- Target Under Test: EGFR L858R/C797S (Homo sapiens, UniProt P00533, C797S/L858R)
- Sequence (P00533 25-1210 C797S/L858R): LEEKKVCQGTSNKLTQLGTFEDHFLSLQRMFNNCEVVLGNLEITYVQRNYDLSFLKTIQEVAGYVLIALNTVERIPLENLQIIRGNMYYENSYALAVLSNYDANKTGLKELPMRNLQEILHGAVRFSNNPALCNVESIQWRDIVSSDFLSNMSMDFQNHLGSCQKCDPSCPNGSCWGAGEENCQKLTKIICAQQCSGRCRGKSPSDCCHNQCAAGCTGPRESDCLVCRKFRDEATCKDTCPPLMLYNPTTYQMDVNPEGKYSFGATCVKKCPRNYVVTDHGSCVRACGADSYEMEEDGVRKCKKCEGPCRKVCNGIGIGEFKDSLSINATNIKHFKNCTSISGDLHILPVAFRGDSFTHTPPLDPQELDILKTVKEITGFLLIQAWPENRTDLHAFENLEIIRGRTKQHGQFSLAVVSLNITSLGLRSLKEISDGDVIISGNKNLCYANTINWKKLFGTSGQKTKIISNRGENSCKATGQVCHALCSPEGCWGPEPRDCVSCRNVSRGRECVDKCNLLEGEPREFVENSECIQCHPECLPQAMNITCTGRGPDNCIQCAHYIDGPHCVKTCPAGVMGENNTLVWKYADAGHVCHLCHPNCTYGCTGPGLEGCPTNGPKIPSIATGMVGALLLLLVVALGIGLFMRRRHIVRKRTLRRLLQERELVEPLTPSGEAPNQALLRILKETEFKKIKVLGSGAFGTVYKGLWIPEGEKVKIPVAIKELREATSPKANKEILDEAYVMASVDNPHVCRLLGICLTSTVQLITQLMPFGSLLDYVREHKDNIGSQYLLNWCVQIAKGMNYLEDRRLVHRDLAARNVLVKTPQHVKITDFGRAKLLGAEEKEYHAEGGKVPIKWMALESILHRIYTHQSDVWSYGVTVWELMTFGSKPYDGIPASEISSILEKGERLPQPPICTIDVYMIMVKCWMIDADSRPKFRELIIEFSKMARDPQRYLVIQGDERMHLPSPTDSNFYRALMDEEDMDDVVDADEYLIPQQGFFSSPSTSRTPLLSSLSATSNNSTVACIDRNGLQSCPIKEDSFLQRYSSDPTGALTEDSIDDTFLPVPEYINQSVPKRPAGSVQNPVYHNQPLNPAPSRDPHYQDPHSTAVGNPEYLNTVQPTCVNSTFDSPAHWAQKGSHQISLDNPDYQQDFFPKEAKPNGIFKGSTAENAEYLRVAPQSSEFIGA
- Test Protocol: Biochemical EGFR kinase inhibition assay (Lance Ultra TR-FRET), double mutant L858R/C797S
- Assay Context: IC50 L858R/C797S (nM), 100 μM ATP
Metric Name: IC50 (nM)

- Molecule: "O=C(c1ccc(C#Cc2cnc(Nc3ccnc(-c4cnn(S(=O)(=O)C5CC5)c4)n3)cc2N[C@H]2CC[C@@H](CO)CC2)cc1)N1CCC(O)CC1 [Example 441]"
  IC50 (nM): 47.1
- Molecule: "Cn1cc(C#Cc2cnc(Nc3ccnc(-c4cnn(S(=O)(=O)C5CC5)c4)n3)cc2N[C@H]2CC[C@@H](O)CC2)c(C(F)(F)F)n1 [Example 92]"
  IC50 (nM): 80.7
- Molecule: "CN(C)CCC1CCN(c2cc(Nc3ccnc(-c4cnn(S(=O)(=O)C5CC5)c4)n3)ncc2C#Cc2cnn(CC(F)(F)F)c2)CC1 [Example 349]"
  IC50 (nM): 9.4

(P) O=S(=O)(C1CC1)n1cc(-c2nccc(Nc3cc(N4CCC(F)(CO)CC4)c(C#Cc4cnn(CC(F)(F)F)c4)cn3)n2)cn1 [Example 342]
(Q) CN(C)CC1(C)CCN(c2cc(Nc3ccnc(-c4cnn(S(=O)(=O)C5CC5)c4)n3)ncc2C#CC2(C)CC2)CC1 [Example 406]
(R) C[C@]1(O)CC[C@@H](Nc2cc(Nc3ccnc(-c4cnn(S(=O)(=O)C5CC5)c4)n3)ncc2C#Cc2cnn(CC(F)F)c2)CC1 [Example 323]
Sort low-to-high on IC50, please. In your reply, arrange the labels in the requested order.
P, Q, R
(P: 11.8 nM, Q: 58.2 nM, R: 184 nM)

* * *

- Target Under Test: EGFR Del19/C797S (Homo sapiens, UniProt P00533, C797S/DEL746-750)
- Sequence (P00533 with tags, fused parts or gaps DEL746-750/C797S): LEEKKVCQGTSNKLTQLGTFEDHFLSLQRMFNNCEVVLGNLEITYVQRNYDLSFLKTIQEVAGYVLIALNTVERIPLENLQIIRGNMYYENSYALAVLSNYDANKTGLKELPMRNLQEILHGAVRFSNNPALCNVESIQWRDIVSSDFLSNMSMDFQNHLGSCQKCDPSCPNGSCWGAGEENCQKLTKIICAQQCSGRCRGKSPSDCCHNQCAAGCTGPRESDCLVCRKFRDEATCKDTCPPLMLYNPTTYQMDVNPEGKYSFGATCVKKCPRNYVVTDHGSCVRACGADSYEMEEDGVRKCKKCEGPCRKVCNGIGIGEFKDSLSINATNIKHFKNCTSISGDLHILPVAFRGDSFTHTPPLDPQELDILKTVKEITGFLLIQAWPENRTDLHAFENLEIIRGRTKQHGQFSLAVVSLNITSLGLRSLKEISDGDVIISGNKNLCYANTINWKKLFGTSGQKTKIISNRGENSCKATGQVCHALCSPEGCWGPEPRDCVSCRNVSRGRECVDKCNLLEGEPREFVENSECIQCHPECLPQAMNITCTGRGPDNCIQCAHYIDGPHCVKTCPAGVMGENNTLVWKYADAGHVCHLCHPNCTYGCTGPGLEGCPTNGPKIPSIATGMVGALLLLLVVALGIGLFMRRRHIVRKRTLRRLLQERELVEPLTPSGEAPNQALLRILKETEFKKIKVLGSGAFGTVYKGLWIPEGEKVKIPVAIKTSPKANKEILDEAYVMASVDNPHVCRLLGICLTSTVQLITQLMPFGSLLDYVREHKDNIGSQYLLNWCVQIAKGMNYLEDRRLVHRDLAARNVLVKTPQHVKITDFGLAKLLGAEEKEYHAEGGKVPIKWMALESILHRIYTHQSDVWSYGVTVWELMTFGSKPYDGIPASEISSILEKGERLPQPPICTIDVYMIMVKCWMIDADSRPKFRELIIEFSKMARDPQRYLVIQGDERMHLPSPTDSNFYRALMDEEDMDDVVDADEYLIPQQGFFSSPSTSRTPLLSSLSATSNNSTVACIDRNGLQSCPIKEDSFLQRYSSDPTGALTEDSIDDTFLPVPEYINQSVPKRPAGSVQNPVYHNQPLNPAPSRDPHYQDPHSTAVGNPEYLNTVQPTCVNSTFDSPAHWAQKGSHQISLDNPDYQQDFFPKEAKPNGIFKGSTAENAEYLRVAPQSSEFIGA
- Test Protocol: Biochemical EGFR kinase inhibition assay (Lance Ultra TR-FRET), double mutant del19/C797S
- Assay Context: IC50 Del19/C797S (nM), 100 μM ATP
Metric Name: IC50 (nM)

# count of solved cases: 10
- Compound: "Cn1ccc(C#Cc2cnc(Nc3ccnc(-c4cnn(S(=O)(=O)C5CC5)c4)n3)cc2N2CCC(NCCF)CC2)n1"
  Readout Units: "nM"
  Experimental Result: 49.1
- Compound: "Cn1cc(C#Cc2cnc(Nc3ccnc(-c4cnn(S(=O)(=O)C5CC5)c4)n3)cc2N2CCC(F)(CO)CC2)cn1"
  Readout Units: "nM"
  Experimental Result: 2.8
- Compound: "CC1(CO)CCN(c2cc(Nc3ccnc(-c4cnn(S(=O)(=O)C5CC5)c4)n3)ncc2C#CCC(F)(F)F)CC1"
  Readout Units: "nM"
  Experimental Result: 10.4
- Compound: "CC1(CO)CCN(c2cc(Nc3ccnc(-c4cnn(S(=O)(=O)C5CC5)c4)n3)ncc2C#CC2CC2)CC1"
  Readout Units: "nM"
  Experimental Result: 2.8
- Compound: "O=S(=O)(C1CC1)n1cc(-c2nccc(Nc3cc(N[C@H]4CC[C@@H](O)CC4)c(C#CC4(O)CCCC4)cn3)n2)cn1"
  Readout Units: "nM"
  Experimental Result: 3.6
- Compound: "CC1(CO)CCN(c2cc(Nc3ccnc(-c4cnn(S(=O)(=O)C5CC5)c4)n3)ncc2C#Cc2cc(C(F)(F)F)n[nH]2)CC1"
  Readout Units: "nM"
  Experimental Result: 26.2
- Compound: "Cn1cc(C#Cc2cnc(Nc3ccnc(-c4cnn(S(=O)(=O)C5CC5)c4)n3)cc2N2CCCC(CO)C2)cn1 (stereo not shown)"
  Readout Units: "nM"
  Experimental Result: 3.8
- Compound: "Cn1cc(C#Cc2cnc(Nc3ccnc(-c4cnn(S(=O)(=O)C5CC5)c4)n3)cc2N2CCC(NCCO)CC2)cn1"
  Readout Units: "nM"
  Experimental Result: 50.8
- Compound: "CC1(CO)CCN(c2cc(Nc3ccnc(-c4cnn(S(=O)(=O)C5CC5)c4)n3)ncc2C#Cc2cnn(C3COC3)c2)CC1"
  Readout Units: "nM"
  Experimental Result: 0.5
- Compound: "O=S(=O)(C1CC1)n1cc(-c2nccc(Nc3cc(N4[C@@H]5CC[C@H]4C[C@H](CO)C5)c(C#Cc4cnn(C(F)(F)F)c4)cn3)n2)cn1"
  Readout Units: "nM"
  Experimental Result: 1730

(P) CC1OCCC1C#Cc1cnc(Nc2ccnc(-c3cnn(S(=O)(=O)C4CC4)c3)n2)cc1N1CCC(C)(O)CC1 (stereo not shown)
(Q) CN(C)C[C@H]1CC[C@@H](Nc2cc(Nc3ccnc(-c4cnn(S(=O)(=O)C5CC5)c4)n3)ncc2C#Cc2cnn(C3CC3)c2)CC1
Problem: Given the entries P and Q , determine which has the lower reported IC50. Answer = label.
Q
(Q: 2 nM, P: 5.2 nM)

* * *

- Target Under Test: EGFR wildtype (WT) (Homo sapiens, UniProt P00533)
- Sequence (P00533 25-1210): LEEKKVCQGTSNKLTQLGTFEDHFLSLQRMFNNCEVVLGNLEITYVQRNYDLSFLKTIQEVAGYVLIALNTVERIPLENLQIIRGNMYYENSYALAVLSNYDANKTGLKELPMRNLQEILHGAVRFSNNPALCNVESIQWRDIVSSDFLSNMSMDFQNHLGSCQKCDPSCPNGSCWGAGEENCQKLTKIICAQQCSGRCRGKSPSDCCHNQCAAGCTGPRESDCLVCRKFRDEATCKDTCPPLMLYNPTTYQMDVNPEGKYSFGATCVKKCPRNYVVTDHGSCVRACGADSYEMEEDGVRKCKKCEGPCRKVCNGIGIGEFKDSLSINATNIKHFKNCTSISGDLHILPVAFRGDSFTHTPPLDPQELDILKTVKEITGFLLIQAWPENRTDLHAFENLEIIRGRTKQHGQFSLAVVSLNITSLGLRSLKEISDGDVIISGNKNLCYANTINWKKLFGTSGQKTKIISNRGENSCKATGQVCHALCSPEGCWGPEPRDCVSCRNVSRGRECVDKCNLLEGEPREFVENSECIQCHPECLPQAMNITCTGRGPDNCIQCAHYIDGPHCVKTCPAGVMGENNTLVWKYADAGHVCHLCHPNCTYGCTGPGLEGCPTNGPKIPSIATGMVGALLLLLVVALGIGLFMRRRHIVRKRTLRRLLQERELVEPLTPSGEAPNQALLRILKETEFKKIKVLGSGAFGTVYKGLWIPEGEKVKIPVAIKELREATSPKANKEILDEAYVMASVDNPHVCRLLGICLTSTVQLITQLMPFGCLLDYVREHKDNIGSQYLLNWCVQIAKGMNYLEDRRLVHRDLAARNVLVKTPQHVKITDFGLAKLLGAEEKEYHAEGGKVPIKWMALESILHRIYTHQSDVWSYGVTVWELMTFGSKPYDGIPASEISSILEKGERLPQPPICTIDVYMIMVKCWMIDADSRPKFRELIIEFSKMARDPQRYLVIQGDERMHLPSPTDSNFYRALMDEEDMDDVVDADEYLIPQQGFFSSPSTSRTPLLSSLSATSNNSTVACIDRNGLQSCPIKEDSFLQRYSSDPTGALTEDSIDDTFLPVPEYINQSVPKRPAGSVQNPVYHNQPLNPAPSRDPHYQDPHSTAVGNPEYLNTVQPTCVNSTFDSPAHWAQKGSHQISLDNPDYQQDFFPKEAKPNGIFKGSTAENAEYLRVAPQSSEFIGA
- Test Protocol: Biochemical EGFR kinase inhibition assay (Lance Ultra TR-FRET), wildtype
- Assay Context: IC50 WT (nM), 100 μM ATP
- Protocol: Biochemical EGFR kinase assays were conducted using Lance Ultra time-resolved fluorescence resonance energy transfer (TR-FRET) technology from Perkin-Elmer. […] Each kinase reactions were incubated at room temperature for 1 hour and then stopped by the addition of 4 μL of stop solution (10 mM EDTA). […] After 60 minutes incubation at room temperature the LANCE signal was measured on an EnVision Multilabel Reader (Perkin-Elmer). […]
Metric Name: IC50

Examples with their reported IC50 follow.
- Molecule: "CC1(CO)CCN(c2cc(Nc3ccnc(-c4cnn(S(=O)(=O)C5CC5)c4)n3)ncc2C#Cc2csc(CN3CCOCC3)n2)CC1 [Example 189]"
  IC50: "> 10000 nM"
- Molecule: "CN(C)C(=O)c1cccc(C#Cc2cnc(Nc3ccnc(-c4cnn(S(=O)(=O)C5CC5)c4)n3)cc2N2CCC(C)(CO)CC2)n1 [Example 264]"
  IC50: "> 10000 nM"
- Molecule: "Cn1cc(C#Cc2cnc(Nc3ccnc(-c4cnn(S(=O)(=O)C5CC5)c4)n3)cc2N2CCCC(F)C2)cn1 (stereo not shown) [Example 70]"
  IC50: "> 10000 nM"
- Molecule: "O=S(=O)(C1CC1)n1cc(-c2nccc(Nc3cc(N4CCC(O)CC4)c(C#Cc4ccc(N5CCOCC5)nc4)cn3)n2)cn1 [Example 215]"
  IC50: "> 10000 nM"
- Molecule: "CC1(CO)CCN(c2cc(Nc3ccnc(-c4cnn(S(=O)(=O)C5CC5)c4)n3)ncc2C#Cc2ccc(C(=O)N3CCC(O)CC3)cc2)CC1 [Example 446]"
  IC50: "2670 nM"
- Molecule: "C[C@H](Nc1cc(Nc2ccnc(-c3cnn(S(=O)(=O)C4CC4)c3)n2)ncc1C#Cc1cnn(C)c1)C(C)(C)O [Example 5]"
  IC50: "> 10000 nM"

I have this molecule here, CNCCC1CCN(c2cc(Nc3ccnc(-c4cnn(S(=O)(=O)C5CC5)c4)n3)ncc2C#Cc2cnn(C)c2)CC1 [Example 153] , and I need its recorded IC50.
822 nM

* * *

- Target Under Test: EGFR Del19/T790M/C797S (Homo sapiens, UniProt P00533, C797S/DEL746-750/T790M)
- Sequence (P00533 with tags, fused parts or gaps DEL746-750/T790M/C797S): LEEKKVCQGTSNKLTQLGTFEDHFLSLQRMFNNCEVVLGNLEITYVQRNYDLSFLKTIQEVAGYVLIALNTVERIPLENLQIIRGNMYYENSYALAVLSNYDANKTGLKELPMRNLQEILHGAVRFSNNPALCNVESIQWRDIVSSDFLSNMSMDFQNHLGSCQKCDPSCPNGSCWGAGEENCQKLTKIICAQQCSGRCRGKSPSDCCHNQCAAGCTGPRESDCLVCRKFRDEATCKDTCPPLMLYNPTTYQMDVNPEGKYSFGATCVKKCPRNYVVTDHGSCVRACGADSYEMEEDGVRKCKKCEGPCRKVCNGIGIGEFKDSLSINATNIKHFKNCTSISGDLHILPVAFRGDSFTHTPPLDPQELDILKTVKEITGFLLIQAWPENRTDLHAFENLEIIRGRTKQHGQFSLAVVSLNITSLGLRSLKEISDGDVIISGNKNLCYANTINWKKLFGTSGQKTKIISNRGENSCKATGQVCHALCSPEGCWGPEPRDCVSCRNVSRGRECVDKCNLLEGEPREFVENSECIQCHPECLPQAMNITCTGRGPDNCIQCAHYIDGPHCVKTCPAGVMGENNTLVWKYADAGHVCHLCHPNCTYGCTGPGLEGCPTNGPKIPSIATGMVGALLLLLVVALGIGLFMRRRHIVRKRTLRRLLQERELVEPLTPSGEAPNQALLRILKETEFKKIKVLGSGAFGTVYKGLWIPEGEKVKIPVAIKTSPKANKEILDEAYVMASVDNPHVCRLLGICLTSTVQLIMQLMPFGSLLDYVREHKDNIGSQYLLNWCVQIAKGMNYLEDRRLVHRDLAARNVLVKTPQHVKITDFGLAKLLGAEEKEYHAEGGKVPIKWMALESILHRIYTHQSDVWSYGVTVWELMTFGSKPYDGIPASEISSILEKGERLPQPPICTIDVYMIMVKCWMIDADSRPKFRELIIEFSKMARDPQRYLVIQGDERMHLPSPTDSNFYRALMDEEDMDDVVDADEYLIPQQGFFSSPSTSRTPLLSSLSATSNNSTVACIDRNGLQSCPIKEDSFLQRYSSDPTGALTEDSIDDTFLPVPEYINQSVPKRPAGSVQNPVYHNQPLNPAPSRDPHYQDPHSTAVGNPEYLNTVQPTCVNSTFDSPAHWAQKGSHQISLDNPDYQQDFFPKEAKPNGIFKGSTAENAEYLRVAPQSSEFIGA
- Test Protocol: Biochemical EGFR kinase inhibition assay (Lance Ultra TR-FRET), triple mutant del19/T790M/C797S
- Assay Context: IC50 Del19/T790M/C797S (nM), 100 μM ATP
Metric Name: IC50 (nM)

- Molecule: "CC(=O)N1CCC(n2cc(C#Cc3cnc(Nc4ccnc(-c5cnn(S(=O)(=O)C6CC6)c5)n4)cc3N3CCC(C)(CO)CC3)cn2)CC1"
  IC50 [nM]: 1.2
- Molecule: "CN(C)CCCn1cc(C#Cc2cnc(Nc3ccnc(-c4cnn(S(=O)(=O)C5CC5)c4)n3)cc2N2CCC(C)(CO)CC2)cn1"
  IC50 [nM]: 0.7
- Molecule: "O=S(=O)(C1CC1)n1cc(-c2nccc(Nc3cc(NC4CCC(CO)CC4)c(C#CC4CCCO4)cn3)n2)cn1 (centres unmarked)"
  IC50 [nM]: 0.3
- Molecule: "CC1(CO)CCN(c2cc(Nc3ccnc(-c4cnn(S(=O)(=O)C5CC5)c4)n3)ncc2C#Cc2cnn3c2CNCC3)CC1"
  IC50 [nM]: 0.4

(P) O=S(=O)(C1CC1)n1cc(-c2nccc(Nc3cc(N4CCC(O)CC4)c(C#Cc4ccc(N5CCOCC5)nc4)cn3)n2)cn1
(Q) CC(C)Nc1cc(Nc2ccnc(-c3cnn(S(=O)(=O)C4CC4)c3)n2)ncc1C#Cc1csc(CF)n1
(R) Cn1cc(C#Cc2cnc(Nc3ccnc(-c4cnn(S(=O)(=O)C5CC5)c4)n3)cc2N2CCC(NCC(F)F)CC2)cn1
Please list the entries, largest IC50 first. Answer by listing the labels in the order asked for.
Q, P, R
(Q: 11.3 nM, P: 2.9 nM, R: 1.7 nM)
